system: CCRF-CEM; test: NCI tumour cell line growth inhibition, 48 h
The source made the active and inactive calls. Rule as the data show it: active = GI50 up to about 1.1 µM and inactive = higher.
Possible outcomes: active, inactive

> print(dat)
                                   compound  discrete.label
1  NCCCN(CCCN(C(=O)Nc1ccccc1)c1ccccc1)C(=O)Nc1ccccc1        inactive
2      COC1=C(N=[N+]=[N-])C(=O)c2ncccc2C1=O          active
3  COC(=O)c1cccc(COc2ccc([N+](=O)[O-])cc2Cl)c1        inactive
4  CC1=NN(C(=O)CSc2nc3ccc(I)cc3c(=O)n2Cc2ccccc2)C(=O)C1        inactive
5    C=CCO/N=C/c1cc(/N=C(/S)c2ccoc2C)ccc1Cl        inactive
6  O=C1C(Nc2ccc(S(=O)(=O)Nc3cnc4ccccc4n3)cc2)=C/C(=N\c2ccc(S(=O)(=O)Nc3cnc4ccccc4n3)cc2)c2ccccc21        inactive
7  Cc1[nH]c2ccccc2c1C1Cc2ccccc2N1C(=O)/C=C/C=C/c1ccccc1 (centres undefined)        inactive
8  CCCN1CN(C(C(=O)N[C@@H]2C(=O)N3C2SC(C)(C)C3C(=O)O)c2ccc(O)cc2)CSC1=S (some centres undefined)        inactive
9  COc1cc(OC)c(C2c3cc4c(cc3OC(N3CCCC3)C2C)OCO4)c(OC)c1 (centres undefined)        inactive
